target: T1, Recombinant human CD8ab protein (extracellular domains of CD8a and CD8b with leucine zippers and tags) (human, UniProt P01732 22-182; P10966 22-170)
T1 construct: extracellular domain; Secreted from HEK293 cells; also called recombinant CD8ab; soluble CD8ab antigen; not shown: acidic leucine zipper; 8x Histidine tag; basic leucine zipper; Strep-tag II
T1 sequence (P01732 22-182, chain 1 of 2): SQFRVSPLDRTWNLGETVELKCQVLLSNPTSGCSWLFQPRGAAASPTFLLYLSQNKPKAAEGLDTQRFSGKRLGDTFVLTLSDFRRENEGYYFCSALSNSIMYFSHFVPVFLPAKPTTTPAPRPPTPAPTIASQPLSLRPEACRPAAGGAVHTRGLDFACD
T1 sequence (P10966 22-170, chain 2 of 2): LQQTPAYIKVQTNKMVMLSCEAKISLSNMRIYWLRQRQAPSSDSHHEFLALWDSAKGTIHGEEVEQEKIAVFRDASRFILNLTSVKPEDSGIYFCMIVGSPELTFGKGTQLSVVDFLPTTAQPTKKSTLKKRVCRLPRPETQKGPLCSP
assay-notes: SPR (Biacore T200, 37 C), antibody captured by anti-human IgG Fc, soluble CD8ab as analyte, 1:1 model
Measured pKd, listed per entry for reference.
In simple prose, pKd is minus the logarithm base ten of a concentration in moles per litre.

Guide cases for pKd, answers given:
>>> data_value("xhCD8v1 (antibody, V domains shown, Mouse monoclonal antibody against CD8b; also called mouse monoclonal antibody xhCD8v1; xCD8v1) VH: QVHLQQSGPELVKPGASVKMSCKTSGYTFTKYTMHWVKQGHEESLEWIGHFNPNNDETKYNQKFTGKATLTVDKSSTTAYMELRSLTSDDSALYYCARDGLGLRLFADWGQGTLITVSA VL: DIQMTQSPASLSASVGETVTITCGASENIYGALNWYQRKQGKSPQLLIFGATNLADGVSSRFSGSGSDRQYSLKISSLHPDDVATYYCQNILDTPWTFGGGTKLEIK")
7.70
>>> data_value("xhCD8v3 (antibody, human IgG1, V domains shown) VH: QVQLVQSGAEVKKPGSSVKVSCKASGSRFYKFAISWVRQAPGQGLEWMGGIIPGHAKANYAQKFQGRVTITADESTSTAYMELSSLRSEDTAVYYCARDGLGIRLFADWGQGTLVTVSS VL: DIQMTQSPSSLSASVGDRVTITCRASQEIYGALNWYQQKPGKAPKLLIYGATNLQSGVPSRFSGSGSGTDFTLTISSLQPEDFATYYCQDIYDAPWTFGGGTKVEIK")
7.14

Read the next record carefully.
Ask: State the recorded pKd for this entry: xhCD8v7 (antibody, human IgG1, V domains shown) VH: EVQLVESGGGLVQPGRSLRLSCAASGFTFDDYAMHWVRQAPGKGLEWVAVISYDGSNKYYADSVKGRFTISRDNSKNTLYLQMNSLRAEDTAVYYCAKDRIGWYDYDAFDIWGQGTMVTVSS VL: EIVLTQSPATLSVTPGEGATLSCRASHSVGSNLAWYQQKPGQAPRLLIYDASNRATGIPARFSGSGSGTDFTLTISSLEPEDLAVYYCQQRSNWPPTFGQGTRLEIK
Result: 8.97
